Tested on: Mycobacterium kansasii 6509/96 (clinical isolate)
Experiment: MIC micromethod in Šula's medium, M. kansasii
Assay type: cell-based
Conditions: Mycobacterium kansasii, 168 h, 7 d incubation, Table 1; read-out: MIC M. kansasii 6509/96 7 d
Endpoint Label: MIC (µM)
Kindly answer with a numeric value in µM, unit omitted.

C/C(=N\NC(=O)c1ccncc1)C(=O)Oc1cc(Cl)ccc1Oc1ccc(Cl)cc1Cl = 4

So what's the measured MIC for this one? C/C(=N\NC(=O)c1ccncc1)C(=O)Oc1ccc(F)cc1 2

So what's the measured MIC for this one? C/C(=N\NC(=O)c1ccncc1)C(=O)Sc1ccccc1 1

So what's the measured MIC for this one? COc1ccc(OC(=O)/C(C)=N/NC(=O)c2ccncc2)cc1 4

* * *

Assay: Cytotoxicity, CellTiter 96 (MTS) assay
Details: human, Cytotoxicity for HepG2 cells, IC50, 24 h incubation, 1–1000 µM
Endpoint Label: IC50 at 24 h (µM)
Kindly answer with a numeric value in µM, unit omitted.

C/C(=N\NC(=O)c1ccncc1)C(=O)Oc1ccc2ccccc2c1 [3j] = 682

So what's the measured IC50 at 24 h for this one? C/C(=N\NC(=O)c1ccncc1)C(=O)Sc1ccccc1 [3s] 182

* * *

Tested on: Mycobacterium kansasii 6509/96 (clinical isolate)
Assay: MIC micromethod in Šula's medium, M. kansasii
Type: cell-based
Conditions: Mycobacterium kansasii, 168 h, 7 d incubation, Table 1; read-out: MIC M. kansasii 6509/96 7 d
// values below are reported MIC
Kindly answer with a numeric value in µM, unit omitted.

C/C(=N\NC(=O)c1ccncc1)C(=O)Oc1ccc(Oc2ccccc2)cc1 = 2
C/C(=N\NC(=O)c1ccncc1)C(=O)Oc1cccc2cccnc12 = 2

So what's the measured MIC for this one? COC(=O)/C(C)=N/NC(=O)c1ccncc1 2

* * *

Test system: Mycobacterium kansasii 6509/96 (clinical isolate)
Experiment: MIC micromethod in Šula's medium, M. kansasii
Assay type: cell-based
Settings: Mycobacterium kansasii, 336 h, 14 d incubation, Table 1; read-out: MIC M. kansasii 6509/96 14 d
Endpoint Label: MIC (µM)
Kindly answer with a numeric value in µM, unit omitted.

So what's the measured MIC for this one? C/C(=N\NC(=O)c1ccncc1)C(=O)Oc1cc(Cl)ccc1Oc1ccc(Cl)cc1Cl 4

So what's the measured MIC for this one? C/C(=N\NC(=O)c1ccncc1)C(=O)OCCn1c([N+](=O)[O-])cnc1C 4

So what's the measured MIC for this one? C/C(=N\NC(=O)c1ccncc1)C(=O)Sc1ccccc1 2

* * *

// values below are reported MIC
Tested on: Mycobacterium avium 330/88
Assay: MIC micromethod in Šula's medium, M. avium
Type: cell-based
Details: Mycobacterium avium, 330/88, 504 h; 21 d incubation, Table 1; read-out: MIC M. avium 330/88 21 d

Here's what some known entries look like.
C/C(=N\NC(=O)c1ccncc1)C(=O)Oc1ccccc1 [3b] = > 250 µM
C/C(=N\NC(=O)c1ccncc1)C(=O)OCc1ccncc1 [3n] = ≥ 1000 µM
C/C(=N\NC(=O)c1ccncc1)C(=O)Oc1ccc(C)cc1 [3c] = > 250 µM

Here is the next item to consider.
So what's the measured MIC for this one? NNC(=O)c1ccncc1 [INH 1, Isoniazid, reference compound] > 250 µM

* * *

Assay: Cytotoxicity, CellTiter 96 (MTS) assay
Conditions: human, Cytotoxicity for HepG2 cells, IC50, 24 h incubation, 1–1000 µM
Endpoint Label: IC50 at 24 h

Here's what some known entries look like.
CC(=O)Nc1ccc(OC(=O)C(C)=NNC(=O)c2ccncc2)cc1 [3p] = > 1000 µM
COC(=O)/C(C)=N/NC(=O)c1ccncc1 [3a] = > 1000 µM

Here is the next item to consider.
So what's the measured IC50 at 24 h for this one? COc1ccc(OC(=O)/C(C)=N/NC(=O)c2ccncc2)cc1 [3d] > 1000 µM

* * *

// values below are reported MIC
Test system: Mycobacterium kansasii 6509/96 (clinical isolate)
Experiment: MIC micromethod in Šula's medium, M. kansasii
Type: cell-based
Conditions: Mycobacterium kansasii, 336 h, 14 d incubation, Table 1; read-out: MIC M. kansasii 6509/96 14 d
Kindly answer with a numeric value in µM, unit omitted.

Here's what some known entries look like.
COC(=O)/C(C)=N/NC(=O)c1ccncc1 [3a] = 4
C/C(=N\NC(=O)c1ccncc1)C(=O)Oc1ccc(Oc2ccccc2)cc1 [3e] = 4
CC(=O)Nc1ccc(OC(=O)C(C)=NNC(=O)c2ccncc2)cc1 [3p] = 16
C/C(=N\NC(=O)c1ccncc1)C(=O)Oc1ccc(Br)cc1 [3h] = 8
C/C(=N\NC(=O)c1ccncc1)C(=O)Oc1ccc(F)cc1 [3f] = 4

So what's the measured MIC for this one? C/C(=N\NC(=O)c1ccncc1)C(=O)Oc1cccc2ccccc12 [3i] 0.25

So what's the measured MIC for this one? C/C(=N\NC(=O)c1ccncc1)C(=O)Oc1cccc2cccnc12 [3m] 4
